Target: Sigma 2 receptor
Assay: Inhibition of [3H]-DTG binding to Sigma opioid receptor type 2
I'd be grateful if you could share measured Ki for these entries.
Report only the number, with the unit nM understood.

Recorded Ki of CC1(C)C2CC[C@@]1(C)CN(CC1CCCCC1)C2 , please.
3.54

Recorded Ki of CC1(C)C2CC[C@]1(C)CN(CC1CCCCC1)C2 , please.
3.14

Recorded Ki of C=CCN1CC[C@@]2(C)c3cc(O)ccc3C[C@H]1[C@H]2C (racemic) , please.
14200

Recorded Ki of CC1(C)C2CC[C@]1(C)CN(CCC1CCCC1)C2 , please.
0.7

Recorded Ki of CC1(C)C2CC[C@]1(C)CN(CCC1CCCCCCC1)C2 , please.
0.33

Recorded Ki of CC1(C)C2CC[C@]1(C)CN(CCCCC1CCCCC1)C2 , please.
6.79

Recorded Ki of CC1(C)C2CC[C@]1(C)CN(CCC1C3CC4CC(C3)CC1C4)C2 (some centres not stated) , please.
0.77

Recorded Ki of CC1(C)C2CC[C@@]1(C)CN(CCC1CCCCC1)C2 , please.
0.23

Recorded Ki of CC1(C)C2CC[C@]1(C)CN(CCC1CCCCCC1)C2 , please.
0.25

Recorded Ki of CC1(C)C2CC[C@]1(C)CN(CCCC1CCCCC1)C2 , please.
0.56

Recorded Ki of CC1(C)C2CC[C@]1(C)CN(C1CCCCC1)C2 , please.
1.1

Recorded Ki of CC1(C)C2CC[C@]1(C)CN(CCC1CCCCC1)C2 , please.
0.28

Reference for the values: ChEMBL document CHEMBL1130524
